- Assay summary: yeast display, Sf9 membrane polyspecificity reagent, FACS + sequencing; frameworks hold sequencing errors
Attribute measured: polyreactivity (PSR sort gate)

QVQLVESGGGLVQAGGSLRLSCAASGIIFYYYAMGSDRQAPGKERELVAAITSSGVRTYYADSVKGRFTISRDNAKNTVYLQMNSLKPEDTAVYYCAASSVLYSRSYDYWGQGTQVTVSS = high polyreactivity
QVQLVESGGGLVQAGGSLRLSCAASGFIFWAYDMGWYRQAPGKERELVAGISKRGGTTYYADSVKGRFTISRDNAKNTVYLQMNSLKPEDTAVYYCAVRLYLEMDYWGQGTQVTVSS = high polyreactivity
HVQLVESGGGLVQAGGSLRLSCAASGLTFTRYTMGWSRQAPGKERELVAAITSSGGSTYYADSVKGRFTISRDNAKNTVYLQMNSLKPEDTAVYDCAARTGYGYGARRTLKSRYDYWGQGTQVTVSS = high polyreactivity

Origin of the recorded values: the nanobody polyreactivity screen of Harvey et al. (2022)
